Reported MIC values follow for various compounds
tested on: Klebsiella pneumoniae; assay: Antimicrobial activity against multidrug-resistant Klebsiella pneumoniae ATCC 700603 by tube dilution method; type: functional
Bridge positions count the residues as written; N and C are the ends. Square brackets hold non-standard residues; d marks the D form. Peptide text beside a SMILES is read from it. ξ: configuration not given here. 2Nal = N[C@@H](Cc1ccc2ccccc2c1)C(=O)O; Cha = N[C@@H](CC1CCCCC1)C(=O)O; Aoc = NCCCCCCCC(=O)O; ξDab = NCCC(N)C(=O)O; GABA = NCCCC(=O)O
Record the value in µM, omitting the unit from your answer.

Sample records with MIC:
compound	experimental result
CC(C)C[C@@H]1NC(=O)CNC(=O)[C@H](Cc2ccc3ccccc3c2)NC(=O)[C@H](CCCNC(=N)N)NC(=O)[C@H](CC(C)C)NC(=O)[C@H](Cc2ccc3ccccc3c2)NC(=O)[C@H](CCCNC(=N)N)NC1=O	128
CC(C)C[C@@H]1NC(=O)C(N)CCNC(=O)CCCNC(=O)[C@H](Cc2ccc3ccccc3c2)NC(=O)[C@H](CCCNC(=N)N)NC(=O)[C@H](CC(C)C)NC(=O)[C@H](Cc2ccc3ccccc3c2)NC(=O)[C@H](CCCNC(=N)N)NC1=O (stereo partly drawn) (H-[ξDab]LR[2Nal]LR[2Nal][GABA]; lactam 1-C)	64
CC(C)C[C@@H]1NC(=O)[C@H](Cc2ccc3ccccc3c2)NC(=O)[C@H](CCCNC(=N)N)NC(=O)[C@H](CC2CCCCC2)NC(=O)CNC(=O)[C@H](Cc2ccc3ccccc3c2)NC(=O)[C@H](CCCNC(=N)N)NC1=O (cyclo([2Nal]G[Cha]R[2Nal]LR))	128
CC(C)C[C@@H]1NC(=O)CNC(=O)[C@H](Cc2ccc3ccccc3c2)NC(=O)[C@H](CCCNC(=N)N)NC(=O)[C@H](CC2CCCCC2)NC(=O)[C@H](Cc2ccc3ccccc3c2)NC(=O)[C@H](CCCNC(=N)N)NC1=O (cyclo([2Nal][Cha]R[2Nal]GLR))	64
CCCCCCC1NC(=O)[C@H](Cc2ccc3ccccc3c2)NC(=O)[C@H](CCCNC(=N)N)NC(=O)[C@H](CC(C)C)NC(=O)CNC(=O)[C@H](Cc2ccc3ccccc3c2)NC(=O)[C@H](CCCNC(=N)N)NC1=O (stereo partly drawn)	16
CC(C)C[C@@H]1NC(=O)CCCCCCCNC(=O)[C@H](Cc2ccc3ccccc3c2)NC(=O)[C@H](CCCNC(=N)N)NC(=O)[C@H](CC(C)C)NC(=O)[C@H](Cc2ccc3ccccc3c2)NC(=O)[C@H](CCCNC(=N)N)NC1=O (cyclo([2Nal][Aoc]LR[2Nal]LR))	16

# evaluate next
Exam item: Name the recorded MIC of the compound listed here: CC(C)C[C@@H]1NC(=O)CCCNC(=O)[C@H](Cc2ccc3ccccc3c2)NC(=O)[C@H](CCCNC(=N)N)NC(=O)[C@H](CC(C)C)NC(=O)[C@H](Cc2ccc3ccccc3c2)NC(=O)[C@H](CCCNC(=N)N)NC1=O (cyclo([2Nal][GABA]LR[2Nal]LR))
Marked response: 128
